Data origin, for the record: patent US20240418703A1

- Test system: primary ovarian cancer cells
- assay.protocol: Effect of single additives in Basal Medium on proliferation of primary ovarian cancer cells (cell counting)
- Assay type: cell-based, human
- particulars: additive in Basal Medium at the final concentration; samples L40 and LQQ; 7-10 days of culture; versus Basal Medium
property: Level of promoting proliferation

molecule	Level of promoting proliferation
noggin (protein, UniProt Q13253 28-232, looked up, medium additive, supplier R&D) Noggin: QHYLHIRPAPSDNLPLVDLIEHPDPIFDPKEKDLNETLLRSLLGGHYDPGFMATSPPEDRPGGGGGAAGGAEDLAELDQLLRQRPSGAMPSEIKGLEFSEGLAQGKKQRLSKKLRRKLQMWLWSQTFCPVLYAWNDLGSRFWPRYVKVGSCFSKRSCSVPEGMVCKPSKSVHLTVLRWRCQRRGGQRCGWIPIQYPIISECKCSC	○
amphiregulin (protein, UniProt P15514 101-187, looked up, Amphiregulin, medium additive, supplier MCE) Amphiregulin: SVRVEQVVKPPQNKTESENTSDKPKRKKKGGKNGKNRRNRKKKNPCNAEFQNFCIHGECKYIEHLEAVTCKCQQEYFGERCGEKSMK	+
human fibroblast growth factor −10 (protein, UniProt O15520 38-208, looked up, medium additive, supplier sino biological) Fibroblast growth factor 10: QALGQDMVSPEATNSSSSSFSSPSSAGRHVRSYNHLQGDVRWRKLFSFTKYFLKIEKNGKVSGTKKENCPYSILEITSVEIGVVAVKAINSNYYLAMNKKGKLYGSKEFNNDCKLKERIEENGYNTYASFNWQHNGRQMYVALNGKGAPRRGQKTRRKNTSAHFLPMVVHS	○
R-spondin1 (protein, UniProt Q2MKA7 21-263, looked up, medium additive, supplier R&D) R-spondin-1: SRGIKGKRQRRISAEGSQACAKGCELCSEVNGCLKCSPKLFILLERNDIRQVGVCLPSCPPGYFDARNPDMNKCIKCKIEHCEACFSHNFCTKCKEGLYLHKGRCYPACPEGSSAANGTMECSSPAQCEMSEWSPWGPCSKKQQLCGFRRGSEERTRRVLHAPVGDHAACSDTKETRRCTVRRVPCPEGQKRRKGGQGRRENANRNLARKESKEAGAGSRRRKGQQQQQQQGTVGPLTSAGPA	○

Please examine the following record next.
Request the reported Level of promoting proliferation associated with fibroblast growth factors 7 (protein, UniProt P21781 32-194, looked up, medium additive, supplier R&D) Fibroblast growth factor 7: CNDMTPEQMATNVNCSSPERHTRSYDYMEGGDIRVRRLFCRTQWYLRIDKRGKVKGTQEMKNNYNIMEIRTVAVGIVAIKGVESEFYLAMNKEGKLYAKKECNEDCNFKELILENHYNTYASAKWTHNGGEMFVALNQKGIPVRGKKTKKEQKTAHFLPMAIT ○
